Source listed as patent US11673901B2.

target_under_test: UniProt Q06124
assay_summary: SHP2 allosteric inhibition assay (DiFMUP prompt fluorescence)
Format: biochemical
measurement_setup: 0.2 nM SHP2 activated with 0.5 μM Activating Peptide 1 or 2; substrate DiFMUP; Table 2, class symbols
Field: IC50. Provide a value for each of the compounds that follow.

Solved cases (5 shown):
chemical_smiles | IC50
Nc1nccc(Sc2cnc(N3CCC[C@@H]3CO)n3ccnc23)c1Cl | > 500 nM
Cc1nc(N2CCC3(CC2)CO[C@@H](C)[C@H]3N)n2ccnc2c1-c1cccc2cn[nH]c12 | ≤ 50 nM
Cc1nc(N2CCC3(CC2)CO[C@@H](C)[C@H]3N)n2ccnc2c1-c1ccc(O)c(Cl)c1Cl | ≤ 50 nM
Cc1nc(N2CCC3(CC2)CO[C@@H](C)[C@H]3N)n2ccnc2c1-c1ccc2[nH]ncc2c1 | ≤ 50 nM
Nc1nccc(Sc2cnc(N3CCOCC3)n3ccnc23)c1Cl | > 500 nM

Please state, for each entry, its recorded IC50.
1. Nc1nccc(Sc2cnc(N3CC[C@@H](O)C3)n3ccnc23)c1Cl
2. COc1cccc(-c2c(C)nc(N3CCC4(CC3)CO[C@@H](C)[C@H]4N)n3ccnc23)c1Cl

1. > 500 nM
2. ≤ 50 nM

IC50 measured on C[C@@H]1OCC2(CCN(c3ncc(-c4ccnc(N)c4)c4nccn34)CC2)[C@@H]1N = > 500 nM

====

target_under_test: SHP2 (Homo sapiens (Human), UniProt Q06124)
Sequence (Q06124 whole entry): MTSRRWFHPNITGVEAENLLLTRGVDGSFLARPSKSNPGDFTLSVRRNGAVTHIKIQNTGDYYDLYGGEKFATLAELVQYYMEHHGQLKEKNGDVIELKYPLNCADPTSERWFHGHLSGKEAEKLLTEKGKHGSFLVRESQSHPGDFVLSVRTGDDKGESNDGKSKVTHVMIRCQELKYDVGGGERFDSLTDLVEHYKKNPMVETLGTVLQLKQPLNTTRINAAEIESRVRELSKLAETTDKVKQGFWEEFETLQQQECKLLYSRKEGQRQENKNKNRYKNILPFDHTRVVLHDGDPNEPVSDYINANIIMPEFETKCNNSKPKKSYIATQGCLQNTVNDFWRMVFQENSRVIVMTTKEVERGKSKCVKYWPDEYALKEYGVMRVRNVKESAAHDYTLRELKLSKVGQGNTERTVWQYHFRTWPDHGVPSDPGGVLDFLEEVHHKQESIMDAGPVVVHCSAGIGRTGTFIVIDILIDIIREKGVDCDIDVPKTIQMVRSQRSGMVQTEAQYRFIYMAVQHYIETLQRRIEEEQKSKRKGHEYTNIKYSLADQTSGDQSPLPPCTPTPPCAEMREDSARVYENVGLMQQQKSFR
assay_summary: SHP2 allosteric inhibition assay (DiFMUP prompt fluorescence)
Format: biochemical
measurement_setup: 0.2 nM SHP2 activated with 0.5 μM Activating Peptide 1 or 2; substrate DiFMUP; Table 2, class symbols
endpoint_label: IC50

Take a look at these entries with their results.
compound | observed
Cc1nc(N2CCC3(CC2)CO[C@@H](C)[C@H]3N)n2ccnc2c1-c1cccc2c(F)c[nH]c12 [Compound 55] | ≤ 50 nM
CC1(N)CCN(c2ncc(Sc3ccnc(N)c3Cl)c3nncn23)CC1 [Compound 7] | 50 to 500 nM
Cc1nc(N2CCC3(CC2)CO[C@@H](C)[C@H]3N)n2cnnc2c1-c1cccc(Cl)c1Cl [Compound 6] | ≤ 50 nM
Nc1nccc(Sc2cnc(N3C[C@@H]4[C@@H](N)[C@@H]4C3)n3ccnc23)c1Cl [Compound 25] | 50 to 500 nM
CC1(N)CN(c2ncc(Sc3ccnc(N)c3Cl)c3nccn23)C1 [Compound 26] | > 500 nM
Cc1nc(N2CCC3(CC2)CO[C@@H](C)[C@H]3N)n2ccnc2c1-c1ccc2[nH]cnc2c1 [Compound 33] | ≤ 50 nM
Cc1nc(N2CCC3(CC2)CO[C@@H](C)[C@H]3N)n2ccnc2c1-c1ccc2c(c1Cl)OCCC2 [Compound 43] | ≤ 50 nM
C[C@@H]1OCC2(CCN(c3ncc(-c4ccnc5[nH]ccc45)c4nccn34)CC2)[C@@H]1N [Compound 59] | > 500 nM
Cc1nc(N2CCC3(CC2)CO[C@@H](C)[C@H]3N)n2ccnc2c1-c1cc2ccccc2n1C [Compound 40] | ≤ 50 nM
Cc1nc(N2CCC3(CC2)CO[C@@H](C)[C@H]3N)n2ccnc2c1-c1cc(Cl)c2cn[nH]c2c1 [Compound 37] | ≤ 50 nM

Items follow; give IC50 for each.
1. C[C@@H]1OCC2(CCN(c3ncc(Sc4ccnc5[nH]ccc45)c4nccn34)CC2)[C@@H]1N [Compound 15]
2. COc1c(C#N)ccc(-c2c(C)nc(N3CCC4(CC3)CO[C@@H](C)[C@H]4N)n3ccnc23)c1Cl [Compound 46]
3. Cc1nc(N2CCC3(CC2)CO[C@@H](C)[C@H]3N)n2ccnc2c1-c1ccc2c(cnn2C)c1 [Compound 34]
4. Nc1nccc(Sc2cnc(N[C@H]3CC[C@@H](O)C3)n3ccnc23)c1Cl [Compound 80]

≤ 50 nM
≤ 50 nM
≤ 50 nM
> 500 nM
